The origin of these recorded values is patent US20240207432A1.

- target-or-test-system: T1, full length human TROP2 on 293F-TROP2 cells (human, UniProt P09758 27-323)
- T1 construct: also called 293F-TROP2 cells (clone ID #3A8); cell surface TROP2
- T1 sequence: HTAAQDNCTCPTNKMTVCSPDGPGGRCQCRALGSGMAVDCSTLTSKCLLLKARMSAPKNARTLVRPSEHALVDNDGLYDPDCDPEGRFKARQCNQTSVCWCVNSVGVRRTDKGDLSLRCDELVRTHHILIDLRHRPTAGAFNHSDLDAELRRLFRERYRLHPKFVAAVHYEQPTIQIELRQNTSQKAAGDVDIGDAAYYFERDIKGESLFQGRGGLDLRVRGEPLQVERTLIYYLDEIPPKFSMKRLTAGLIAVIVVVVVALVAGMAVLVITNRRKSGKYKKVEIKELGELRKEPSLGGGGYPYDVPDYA
- procedure-details: FACS on 293F-TROP2 cells, MFI
pEC50: −log10 of the molar value.
recorded-endpoint: pEC50

1. mouse antibody A1B12D2B4E7B3 (antibody, V domains shown, Mouse monoclonal IgG purified from hybridoma supernatant) VH: EVQLQQSGPELVKPGASVKMSCKASGFTFTDYYMNWVKQSHGKSLEWIGYIYPNHGGTGYNQKFKDKATLTVDKSSSTAYMELRSLTSDDSAVYYCARENYGYAMDYWGQGTSVTVSS VL: DVVMTQTPLSLPVSLGDQASISCRSSQSLVHGDGNTYLHWFLQKPGQSPKLLIYTVSNRFSGVPDRFSGSGSGTDFTLKINRVEAEDLGIYFCSQTTHVPTFGGGTKLEIK    9.05
2. mouse antibody A1E11A12D1 (antibody, V domains shown, Mouse monoclonal IgG purified from hybridoma supernatant) VH: QVQLQQSGAELARPGASVKLSCMASGYTFTTYGISWVRQRTGQGLEWIGQIYPGSDYSYCDEDFKGKATLTADKSSSTAYMQLSSLTSEDSAVYFCARASYFDYWGQGTTLTVSS VL: DILLTQSPAILSVSPGERVSFSCRASQTIGTAIHWYQQRANGSPRLLIKYASESISGIPSRFSGSGSGTDFALSINTVESEDFAYYYCQQSNNWPFTFGGGTKLEIR    9.11
3. benchmark (in house prepared sacituzumab) (antibody, human IgG1, kappa, V domains shown, also called BM; BM1) VH: SVQLQQSGSELKKPGASVKVSCKASGYTFTNYGMNWVKQAPGQGLKWMGWINTYTGEPTYTDDFKGRFAFSLDTSVSTAYLQISSLKADDTAVYFCARGGFGSSYWYFDVWGQGSLVTVSS VL: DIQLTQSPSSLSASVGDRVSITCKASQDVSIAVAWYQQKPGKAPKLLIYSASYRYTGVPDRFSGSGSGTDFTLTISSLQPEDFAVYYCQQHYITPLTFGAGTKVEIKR    9.08
4. mouse antibody A1H3C5H8E12 (antibody, V domains shown, Mouse monoclonal IgG purified from hybridoma supernatant) VH: QVQLQQSGAELVRPGTSVKMSCKAAGYTFTNYWIDWVKQRPGHGLEWIGNIFPGGFYTNYNEKFKGKATLTADTSSSTAYMQLSSLTSEDSAIYYCARGGVFDYWGQGTTLTVSS VL: DILLTQSPAILSVSPGERVSFSCRASQSIGTSIHWYQQRTNGSPRLLIKYASESISGIPSRFSGSGSGTDFTLSINSVESEDIADYYCQQSNSWPYTFGGGTKLEIK    9.11
5. mouse antibody A1E4F7D4 (antibody, V domains shown, Mouse monoclonal IgG purified from hybridoma supernatant; also called Mouse A1E4F7D4) VH: QVQLQQSGAELAKPGTSVKMSCEASGYSFTTHWIHWMKQRPGQGLEWIGTIFPSNAYAVYNQKFRDRAIMTADRSSTTAYIQLTGLTSEDSAVYYCARASYFDYWGQGTTLTVSS VL: DILLTQSPATLSVSPGERVTFSCRASQNIGTSIHWFQQRTTGSPRLLIKYASESISGIPSRFSGSGSGTDFTLHINSVESEDIAHYYCQHSHSWPFTFGSGTKLEIQ    9.32
